Tested on: XIP peptide (Xip251-270)
Assay: small-molecule binders of XIP peptide, primary screen, biochemical, small-molecule microarray, fluorescence 635/667 nm, 0.5 µg/mL protein (AID 1183)
Settings: small-molecule microarray binding, fluorescence 635 nm; higher = more signal
experimentalEndpoint: composite z-score
Number, no unit, nothing else.

Field: example entries. Status: answers known.
Query `COC(=O)[C@@]1(Cc2ccc(OC)cc2)[C@H]2c3cc(C(=O)N(C)C)n(Cc4ccc(C)c(F)c4F)c3C[C@H]2CN1C(=O)c1ccccc1` yields composite z-score of 0.465

composite z-score in this record for `C#CCCCON=C1C[C@@H](O)[C@@H](O)[C@@H]2[C@@H]3C(=O)N(Cc4ccc5c(c4)OCO5)C(=O)[C@@H]3CC[C@H]12` : 0.783

New cases:
composite z-score reported for this compound `C[C@]1(C(=O)NCc2ccccc2)c2ccccc2C(=O)N(Cc2cc(C(F)(F)F)cc(C(F)(F)F)c2)[C@H]1c1ccc(CO)cc1` : -0.105

# composite z-score (compound: `C[C@H]1COC(=O)[C@H](Cc2ccccc2)NC(=O)[C@@H](C)COC(=O)[C@H](Cc2ccccc2)NC1=O` ) is 0.342

The recorded composite z-score for entry `O=C1O[C@H](c2ccccc2)[C@H](c2ccccc2)N2[C@H]1[C@@H](C(=O)NC[C@H](O)c1ccccc1)[C@]1(C(=O)Nc3ccc(C#CC4(O)CCCCCC4)cc31)[C@H]2c1ccc(OCCO)cc1` equals 0.799

// composite z-score value for `CCN1C(C)=C(C(=O)OC)[C@@H](c2ccccc2)N2C(=O)[C@@]3(C(=O)OC)O[C@@]12[C@@H]1C(=O)N(c2ccccc2)C(=O)[C@@H]13` : 0.9

# composite z-score of `CO[C@@H]1COC(=O)[C@H](C)NC(=O)CC=C[C@@H](C)[C@H](OC)COC(=O)[C@H](C)NC(=O)CC=C[C@H]1C` = 0.132

The compound listed as `CO[C@H]1COC(=O)[C@H](C)COC(=O)[C@H](Cc2ccccc2)NC(=O)CC=C[C@H]1C` has a reported composite z-score of 0.613
